B1: Lysozyme C, P61626 (parent)
chain: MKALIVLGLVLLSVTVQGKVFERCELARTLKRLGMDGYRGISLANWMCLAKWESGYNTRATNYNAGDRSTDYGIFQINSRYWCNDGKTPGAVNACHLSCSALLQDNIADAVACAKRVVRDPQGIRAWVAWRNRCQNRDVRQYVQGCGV

- Variants of: B1
- measurement_setup: Homo sapiens; pH 2.7; 64.9 °C; Thermal; DSC; glycine 0.05 M; reversible: yes; structure 1LZ1; whole UniProt chain shown
attribute_measured: heat capacity change of unfolding

{"mut": "I41A", "val": "1.2 kcal/mol/K"}
{"mut": "I77A", "val": "1.46 kcal/mol/K"}
{"mut": "I124A", "val": "1.34 kcal/mol/K"}
{"mut": "I77G", "val": "1.24 kcal/mol/K"}
{"mut": "I107A", "val": "1.65 kcal/mol/K"}
{"mut": "I74A", "val": "1.34 kcal/mol/K"}
